- System: Plasmodium falciparum
- Assay Text: Primary screen in NF54 nanoGlo assay, in single point, at 2uM, 72h
- Assay type: functional, Erythrocyte
- Test Parameters: timepoint 72 hour
About 540 (0.36%) of roughly 150,000 compounds showed an effect of 50% or more. The entries come from a sample that favours strong results as a whole.
Assay Metric: % Inhibition (%)
Output spec: scalar in %, unitless text.

// worked examples, % Inhibition included
| Compound | Unit Symbol | % Inhibition |
| --- | --- | --- |
| CC(C)C(=O)NCC(=O)N1CC[C@@]2(CCCN(CCCc3ccccc3)C2)C1 | % | -7 |
| CC(=O)Nc1ccnc(Cc2ccccc2)n1 | % | -8 |
| Cc1nn(C(C)(C)C)c2nc(C3CC3)cc(C(=O)N3CCN(c4ccccc4)CC3)c12 | % | 7 |

query: Entry Cc1cc(-c2c(C)sc(C)c2S(=O)(=O)N2CCOCC2)on1 : reported % Inhibition = ?
result: -8
